target.or.test.system: ATP-binding cassette sub-family B member 6 (Homo sapiens) (UniProt Q9NP58)
Sequence (Q9NP58 whole entry, looked up): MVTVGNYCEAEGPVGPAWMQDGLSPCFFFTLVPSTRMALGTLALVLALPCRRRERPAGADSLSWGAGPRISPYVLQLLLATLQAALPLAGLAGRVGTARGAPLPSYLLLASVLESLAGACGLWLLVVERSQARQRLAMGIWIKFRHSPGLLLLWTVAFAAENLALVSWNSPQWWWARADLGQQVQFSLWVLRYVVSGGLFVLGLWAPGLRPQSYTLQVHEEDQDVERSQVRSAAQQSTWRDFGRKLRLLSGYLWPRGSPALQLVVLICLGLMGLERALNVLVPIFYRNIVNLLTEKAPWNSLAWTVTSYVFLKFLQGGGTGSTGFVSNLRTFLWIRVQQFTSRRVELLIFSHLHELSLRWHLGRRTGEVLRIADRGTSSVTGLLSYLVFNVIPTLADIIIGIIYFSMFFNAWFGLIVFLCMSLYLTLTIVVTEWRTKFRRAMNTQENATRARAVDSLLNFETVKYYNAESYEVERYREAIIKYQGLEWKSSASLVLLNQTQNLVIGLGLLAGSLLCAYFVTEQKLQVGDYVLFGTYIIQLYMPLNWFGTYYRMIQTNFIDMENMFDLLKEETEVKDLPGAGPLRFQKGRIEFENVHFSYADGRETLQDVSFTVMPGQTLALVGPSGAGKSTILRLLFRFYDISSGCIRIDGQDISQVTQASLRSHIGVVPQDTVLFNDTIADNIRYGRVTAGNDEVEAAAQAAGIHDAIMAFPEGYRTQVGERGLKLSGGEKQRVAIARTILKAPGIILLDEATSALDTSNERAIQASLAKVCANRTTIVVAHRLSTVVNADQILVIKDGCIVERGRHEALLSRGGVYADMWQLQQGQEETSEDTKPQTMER
assay.procedure: blockers of ABCB6-driven porphyrin uptake – K562-ABCB6 cells, flow cytometry, validation set, pilot screen (AID 588550);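 further: 0% = DMSO wells and 100% = benzethonium chloride 70 µM positive control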
experimental.context: K562-ABCB6 porphyrin accumulation, 1 h, at 10 µM, active compounds read high
Consider the following compounds; for each one, report its inhibition.
One number for each entry, in %.

Dear colleague, could you send me inhibition for each of the items below? Thanks.
1. COc1ccc(Cc2noc(CN(C)CC3(N4CCOCC4)CCCCC3)n2)cc1OC
2. O=C(CCC(=O)NCCO)NCCO
3. COC(=O)CN1C(=S)N(c2ccc(F)cc2)C(=O)C1CC(=O)Nc1ccccc1 (stereo not given)
4. COc1ccc2[nH]c3c(=O)n(/N=C/[C@H]4C(C)C=C(C)CC4C)c(=O)[nH]c3c2c1 (stereo not given in full)
5. O=C1CC[C@@H](CN(Cc2ccccc2)Cc2cn[nH]c2-c2cc3ccccc3o2)N1

[36, 2, -3, 1, 1]

Where these numbers come from: PubChem BioAssay
